// Ki lookup, one value per entry
- studyTarget: CYP1A2 (Homo sapiens)
- assayName: Cytochrome P450 inhibition in human liver microsomes

C[C@H]1[C@@H](O)O[C@@H]2O[C@@]3(C)CC[C@H]4[C@H](C)CC[C@@H]1[C@@]24OO3 [Dihydroartemisinin]	6.2 µM
C[C@H]1[C@H](OC(=O)CCC(=O)O)O[C@@H]2O[C@@]3(C)CC[C@H]4[C@H](C)CC[C@@H]1[C@@]24OO3 [Artesunate]	12 µM

Turning to the following compound.
Any idea what its Ki is? The compound is C[C@H]1Cc2c([nH]c3cc(Cl)c(F)cc23)[C@@]2(N1)C(=O)Nc1ccc(Cl)cc12 [KAE609]
2.7 µM

* * *

- studyTarget: CYP1A2 (Homo sapiens)
- Sequence (P05177 1-516): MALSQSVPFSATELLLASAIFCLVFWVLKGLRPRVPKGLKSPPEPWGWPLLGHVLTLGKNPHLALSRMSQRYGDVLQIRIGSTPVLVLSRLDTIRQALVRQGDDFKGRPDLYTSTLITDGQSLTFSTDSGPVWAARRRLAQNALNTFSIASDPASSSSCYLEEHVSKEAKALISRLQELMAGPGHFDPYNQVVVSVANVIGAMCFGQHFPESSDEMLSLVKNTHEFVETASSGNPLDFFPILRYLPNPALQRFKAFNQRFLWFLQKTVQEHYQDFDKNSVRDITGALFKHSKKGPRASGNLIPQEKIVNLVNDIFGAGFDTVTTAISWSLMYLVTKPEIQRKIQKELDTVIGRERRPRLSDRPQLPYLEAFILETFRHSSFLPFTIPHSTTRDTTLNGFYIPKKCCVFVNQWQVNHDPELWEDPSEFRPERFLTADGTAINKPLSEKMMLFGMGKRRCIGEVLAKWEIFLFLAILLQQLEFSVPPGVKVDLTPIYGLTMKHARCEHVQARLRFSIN
- assayName: in vitro
- conditionDescription: microsomes
readoutType: CYP1A2 % inhibition at max conc

Clc1ccc2c(N3CCN(CCCN4CCN(c5ccnc6cc(Cl)ccc56)CC4)CC3)ccnc2c1	nmi
O=C1C(O)=C([C@H]2CC[C@H](c3ccc(Cl)cc3)CC2)C(=O)c2ccccc21	nmi
CCN(CC)CCCNc1ccnc2cc(Cl)ccc12.Cl.Cl	nmi
CS(=O)(=O)c1ccc(-c2cnc(N)c(-c3ccc(C(F)(F)F)nc3)c2)cc1	nmi
CN(C)C[c-]1cccc1CNc1ccnc2cc(Cl)ccc12.[Fe+2].c1cc[cH-]c1 (stereo not shown)	nmi

Any idea what its CYP1A2 % inhibition at max conc is? The compound is CC(C)(C)NCc1cc(Nc2ccnc3cc(Cl)ccc23)c2c(c1O)CCCC2
33%

Any idea what its CYP1A2 % inhibition at max conc is? The compound is CCc1nc(N)nc(N)c1OCCCOc1ccccc1CCC(=O)O.Cl
nmi

Any idea what its CYP1A2 % inhibition at max conc is? The compound is Cc1nc(Nc2ncc(N3CCN(C)[C@H](C)C3)c(Nc3cc(C)n(C)n3)n2)cc(C2CC2)c1F
nmi

* * *

// Predicted human Peff lookup, one value per entry
- assayName: Solubility limited absorbable dose (SLAD) calculation with predicted human jejunal Peff
- conditionDescription: from Caco-2 Papp via calibration plot

Field: example entries. Status: answers known.
Cc1nc(Nc2ncc(N3CCN(C)[C@H](C)C3)c(Nc3cc(C)n(C)n3)n2)cc(C2CC2)c1F [MMV253]	6.8 10^−4 cm/s
COc1cc2[nH]c(C)c(-c3ccc(Oc4ccc(OC(F)(F)F)cc4)cc3)c(=O)c2cc1Cl [ELQ300]	11 10^−4 cm/s
C[C@H]1[C@@H](O)O[C@@H]2O[C@@]3(C)CC[C@H]4[C@H](C)CC[C@@H]1[C@@]24OO3 [Dihydroartemisinin]	4.4 10^−4 cm/s
CCc1nc(N)nc(N)c1OCCCOc1ccccc1CCC(=O)O.Cl [P218]	0.24 10^−4 cm/s

Any idea what its Predicted human Peff is? The molecule is CS(=O)(=O)O.FC1CCN(CCOc2ccc(C3CCC4(CC3)OOC3(OO4)C4CC5CC(C4)CC3C5)cc2)CC1 (stereo not shown) [TDD-E209]
11 10^−4 cm/s

Any idea what its Predicted human Peff is? The molecule is O=C1C(O)=C([C@H]2CC[C@H](c3ccc(Cl)cc3)CC2)C(=O)c2ccccc21 [Atovaquone]
11 10^−4 cm/s

Provenance of the data: paper PMC6941357
